Assay type: in vivo, human (healthy adult subjects)
statedConditions: human, blood, 0.75 mg
endpoint: concentration at 12 h (ng/mL)
Hi! Could you send only the number? It should be in ng/mL, unit omitted.

Quick check: concentration at 12 h of CO[C@H]1C[C@@H]2CC[C@@H](C)[C@@](O)(O2)C(=O)C(=O)N2CCCC[C@H]2C(=O)O[C@H]([C@H](C)C[C@@H]2CC[C@@H](OCCO)[C@H](OC)C2)CC(=O)[C@H](C)/C=C(\C)[C@@H](O)[C@@H](OC)C(=O)[C@H](C)C[C@H](C)/C=C/C=C/C=C/1C ?
0.513

###

Type: in vivo, human (healthy adult subjects)
statedConditions: human, blood, oral, 2 mg
endpoint: AUC(0-inf) (ng·h/mL)
Hi! Could you send only the number? It should be in ng·h/mL, unit omitted.

Quick check: AUC(0-inf) of CO[C@H]1C[C@@H]2CC[C@@H](C)[C@@](O)(O2)C(=O)C(=O)N2CCCC[C@H]2C(=O)O[C@H]([C@H](C)C[C@@H]2CC[C@@H](O)[C@H](OC)C2)CC(=O)[C@H](C)/C=C(\C)[C@@H](O)[C@@H](OC)C(=O)[C@H](C)C[C@H](C)/C=C/C=C/C=C/1C ?
178
